The reported measurements were obtained from ChEMBL document CHEMBL4020840.

Parameter pIC50: see the listing below.
# Tested on: LoVo
# TEST PROTOCOL: Growth inhibition of human LoVo cells after 48 hrs by MTT assay
# Format: functional, cell-based
The read-out pIC50 is expressed as -log10 of concentration in moles per litre.

// worked examples, pIC50 included
Cc1nc(N(C)c2ccc([Se]C#N)cc2)c2ccccc2n1 : 7.49
COc1ccc(N(C)c2nc(C)nc3ccccc23)cc1C(=O)NCC[Se]C#N : 6.25

GET /value?item= "COc1ccc(N(C)c2nc(C)nc3ccccc23)cc1C(=O)OCC[Se]C#N" &field=pIC50 returns 5.53

GET /value?item= "COc1ccc(N(C)c2nc(C)nc3ccccc23)cc1OCCCC[Se]C#N" &field=pIC50 returns 6.05

GET /value?item= "C[Se]c1ccc(N(C)c2nc(C)nc3ccccc23)cc1C" &field=pIC50 returns 8.05

GET /value?item= "COc1ccc(N(C)c2nc(C)nc3ccccc23)cc1OCCC[Se]C#N" &field=pIC50 returns 6.04

GET /value?item= "C[Se]c1ccc(N(C)c2nc(C)nc3ccccc23)cc1Cl" &field=pIC50 returns 8.52

GET /value?item= "CN(c1ccc([Se]C#N)cc1)c1nc(C2CC2)nc2ccccc12" &field=pIC50 returns 7.96

###

# TEST PROTOCOL: Antiproliferative activity against HLF after 48 hrs by MTT assay
# Type: cell-based
# ASSAY SETUP: Homo sapiens
OUTCOME MEASURE: pIC50
The read-out pIC50 is expressed as -log10 of concentration in moles per litre.

// worked examples, pIC50 included
Cc1nc(N(C)c2ccc([Se]C#N)cc2)c2ccccc2n1 : 7.39
C[Se]c1ccc(N(C)c2nc(C)nc3ccccc23)cc1 : 7.70
C[Se]c1ccc(N(C)c2nc(C)nc3ccccc23)cc1F : 7.72

GET /value?item= "COc1ccc(N(C)c2nc(C)nc3ccccc23)cc1" &field=pIC50 returns 7.74

###

# Test system: MDA-MB-231
# TEST PROTOCOL: Growth inhibition of human MDA-MB-231 cells after 48 hrs by MTT assay
# Format: functional, cell-based
# ASSAY SETUP: MDA-MB-231, 48 h
Parameter pIC50: see the listing below.
The read-out pIC50 is expressed as -log10 of concentration in moles per litre.

COc1ccc(N(C)c2nc(C)nc3ccccc23)cc1C(=O)OCCC[Se]C#N : 5.93

Alright, here's another compound for you.
GET /value?item= "COc1ccc(N(C)c2nc(C)nc3ccccc23)cc1[Se]C" &field=pIC50 returns 8.00

###

# Tested on: HeLa
# TEST PROTOCOL: Antiproliferative activity against human HeLa cells after 48 hrs by MTT assay
# Type: functional, cell-based
OUTCOME MEASURE: IC50 (nM)
A number alone suffices; assume nM.

COc1ccc(N(C)c2nc(C)nc3ccccc23)cc1 : 5
C[Se]c1ccc(N(C)c2nc(C)nc3ccccc23)cc1 : 3

Reading of IC50 for "C[Se]c1ccc(N(C)c2nc(C)nc3ccccc23)cc1F" with HeLa: 5

Reading of IC50 for "Cc1nc(N(C)c2ccc([Se]C#N)cc2)c2ccccc2n1" with HeLa: 9

###

# System: LoVo
# TEST PROTOCOL: Growth inhibition of human LoVo cells after 48 hrs by MTT assay
# Format: functional, cell-based
Decide using IC50 alone. Strictly below 400 nM: Criterion met. Equal to or above 400 nM: Criterion not met.

COc1ccc(N(C)c2nc(C)nc3ccccc23)cc1OCCN : Criterion not met

## Task Does the reported IC50 of "COc1ccc(N(C)c2nc(C)nc3ccccc23)cc1OCC[Se]C#N" stay below 400 nM?
## Result Criterion met

## Task Does the reported IC50 of "Cc1nc(N(C)c2ccc([Se]C#N)c(Cl)c2)c2ccccc2n1" stay below 400 nM?
## Result Criterion met

## Task Does the reported IC50 of "COc1ccc(N(C)c2nc(C)nc3ccccc23)cc1OCCCCC[Se]C#N" stay below 400 nM?
## Result Criterion not met

## Task Does the reported IC50 of "Cc1nc(N(C)c2ccc([Se]C#N)c(F)c2)c2ccccc2n1" stay below 400 nM?
## Result Criterion met

## Task Does the reported IC50 of "Cc1nc(N(C)c2ccc(OCC[Se]C#N)cc2)c2ccccc2n1" stay below 400 nM?
## Result Criterion not met
